assay: ATG_VDRE_CIS: Attagene CIS-FACTORIAL HepG2 Assay for human Vitamin D Receptor Element (VDRE) (AID 2282968); details: HepG2 VDRE cis-reporter transcription, actives raise or lower the signal
Activity calls are given as the source filed them. How the source made its calls: active means hit-call score of the fitted dose curve at least 0.9, where 1 is the maximum; inactive means score below 0.9.
Possible outcomes: True for active, False for inactive

| COMPOUND | ASSIGNED_CLASS |
| --- | --- |
| CSCCC=O | False |
| CC(C)CC(C)CC(O)CC(C)C (configuration not stated) | False |
| CCC(C)=O | False |
| C=C1C[C@]23C[C@@]1(O)CC[C@H]2[C@@]12C=C[C@H](O)[C@@](C)(C(=O)O1)[C@H]2[C@@H]3C(=O)O | False |
| O=[N+]([O-])c1ccc(O)cc1C(F)(F)F | False |
| CCC1(C)NC(=O)NC1=O (configuration not stated) | False |
| O=C(CC(=O)c1ccccc1)c1ccccc1 | False |
| C=C1CC[C@H](O)C/C1=C/C=C1\CCC[C@]2(C)[C@@H]([C@H](C)/C=C/[C@H](C)C(C)C)CC[C@@H]12 | False |
| CCC1CCCCC1 | False |
| CCCCOC(=O)CCCCCCCC(=O)OCCCC | False |
| OC[C@H]1O[C@@H]2O[C@H]3[C@H](O)[C@@H](O)[C@@H](O[C@H]4[C@H](O)[C@@H](O)[C@@H](O[C@H]5[C@H](O)[C@@H](O)[C@@H](O[C@H]6[C@H](O)[C@@H](O)[C@@H](O[C@H]7[C@H](O)[C@@H](O)[C@@H](O[C@H]8[C@H](O)[C@@H](O)[C@@H](O[C@H]9[C@H](O)[C@@H](O)[C@@H](O[C@H]1[C@H](O)[C@H]2O)O[C@@H]9CO)O[C@@H]8CO)O[C@@H]7CO)O[C@@H]6CO)O[C@@H]5CO)O[C@@H]4CO)O[C@@H]3CO | False |
| CCC(=O)O[C@@H]1C[C@H]2CC[C@]1(C)C2(C)C | False |
| COC(C)(C)CCO | False |
| CCCCCCCCCCCCCC(=O)OCC(O)CO (configuration not stated) | False |
| CCCC(C)C(O)CC (configuration not stated) | False |
| CC1C2CC(CC2C2CCCC(O)C2)C1(C)C (configuration not stated) | False |
| Nc1ccc(N)c2c1C(=O)c1ccccc1C2=O | True |
| COC(=O)Nc1ccc(Cl)c(Cl)c1 | True |
| Nc1c(S(=O)(=O)O)cc(Br)c2c1C(=O)c1ccccc1C2=O | True |
| CS(=O)(=O)OCCCCOS(C)(=O)=O | False |
| CC(C)(C)OC(=O)c1ccc(O)cc1 | True |
| FC(F)(F)COCC(F)(F)F | False |
| CCCSc1ccc2nc(NC(=O)OC)[nH]c2c1 | False |
| COc1ccc(OC)c(N=Nc2c(O)ccc3ccccc23)c1 | False |
| OCC(O)c1ccccc1 (configuration not stated) | False |
| CCCCCc1ccco1 | False |
| COc1ccc(N=Nc2cc(C)c(N=Nc3ccc(S(=O)(=O)O)cc3)cc2OC)cc1 | False |
| CCCC(=O)c1ccccc1 | False |
| C=CC(C)(O)CCC=C(C)C (configuration not stated) | False |
| CCCC(O)C(O)CO (configuration not stated) | False |
| CSc1c(Cl)c(Cl)c(Cl)c(Cl)c1Cl | False |
| Cc1ccc(-c2ccccc2)cc1 | False |
| COc1cc(Cl)c(OC)cc1N | False |
| CC(C)C(OC(=O)c1ccccc1)C(C)(C)COC(=O)c1ccccc1 (configuration not stated) | True |
| C=C(C)C(=O)OCCOCCOCCOCCOC(=O)C(=C)C | False |
| COc1ccccc1[N+](=O)[O-] | False |
| O=CCc1ccccc1 | False |
| CN1C(=O)c2ccccc2C1=O | False |
| Brc1ccc(Br)c(Br)c1 | False |
| c1ccc(Oc2ccccc2)cc1 | False |
| BrCc1cccc(Oc2ccccc2)c1 | False |
| CCCCC(CC)(CO)CO | False |
| C=C(C)C1CC=C(C)C(=O)C1 (configuration not stated) | False |
| Cc1occc(=O)c1OC(=O)C(C)C | False |
| NCc1ccco1 | False |
| Cc1ccc(S(N)(=O)=O)cc1 | False |
| CC(=O)c1c(C)c([N+](=O)[O-])c(C(C)(C)C)c([N+](=O)[O-])c1C | True |
| CCCC1O[C@@H]2C[C@H]3[C@@H]4CCC5=CC(=O)C=C[C@]5(C)[C@H]4[C@@H](O)C[C@]3(C)[C@]2(C(=O)CO)O1 (some centres not stated) | False |
| CN(C)c1cccc(O)c1 | False |
| CCCOCCO | False |
| Oc1ccc2cc(SSc3ccc4cc(O)ccc4c3)ccc2c1 | True |
| CCCCC(CC)COC(=O)c1ccc(O)cc1 (configuration not stated) | False |

----------
biological target: human Retinoid X Receptor beta (RXRb), RXRB (gene 6257) (UniProt P28702); assay: ATG_RXRb_TRANS: Attagene TRANS-FACTORIAL HepG2 Assay for human Retinoid X Receptor beta (RXRb) (AID 2283013)
Sequence (P28702 whole entry, looked up): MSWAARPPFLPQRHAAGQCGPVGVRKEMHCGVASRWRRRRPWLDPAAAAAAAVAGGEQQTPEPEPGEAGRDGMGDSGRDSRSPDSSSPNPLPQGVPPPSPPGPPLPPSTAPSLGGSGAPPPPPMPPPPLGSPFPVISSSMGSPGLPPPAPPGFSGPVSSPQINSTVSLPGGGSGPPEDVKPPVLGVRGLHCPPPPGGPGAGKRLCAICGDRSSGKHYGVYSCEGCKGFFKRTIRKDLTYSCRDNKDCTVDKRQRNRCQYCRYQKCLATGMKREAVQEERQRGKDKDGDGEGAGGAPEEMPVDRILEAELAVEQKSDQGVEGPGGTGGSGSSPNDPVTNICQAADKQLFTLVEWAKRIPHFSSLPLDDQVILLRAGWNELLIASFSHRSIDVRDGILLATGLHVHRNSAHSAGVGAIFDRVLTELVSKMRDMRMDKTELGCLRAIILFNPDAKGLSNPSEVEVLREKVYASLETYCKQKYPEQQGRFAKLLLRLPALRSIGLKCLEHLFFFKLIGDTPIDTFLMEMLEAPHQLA
Results filed as inconclusive are left out. Activity calls are given as the source filed them. The calls were made as follows: active = hit-call score of the fitted dose curve at least 0.9, where 1 is the maximum; inconclusive = response in the unintended direction; inactive = score below 0.9.
Possible outcomes: active, inactive

| MOLECULE | ASSIGNED_CLASS |
| --- | --- |
| CCCCC(CC)C(=O)OC(C)C (stereo not drawn) | inactive |
| Clc1cc(Cl)c(-c2c(Cl)c(Cl)cc(Cl)c2Cl)cc1Cl | inactive |
| CC(=O)O[C@@H]1C[C@@H]2CC[C@@]1(C)C2(C)C | inactive |
| CN(C)c1cccc(O)c1 | inactive |
| CCCCCCC(O)CCCCCCCCCCC(=O)O (stereo not drawn) | active |
| CC1(C)C2=CCCC(C)(C)[C@]23CC[C@H]1C3 | inactive |
| Clc1ccc(C(c2ccccc2Cl)C(Cl)Cl)cc1 (stereo not drawn) | active |
| O=CN1CCOCC1 | inactive |
| CC(C)(C)C1=CC(=O)C(C(C)(C)C)=CC1=O | active |
| COC(CC(C)CCCC(C)(C)O)OC (stereo not drawn) | inactive |
| CC1(C)O[C@@H]2C[C@H]3[C@@H]4CCC5=CC(=O)C=C[C@]5(C)[C@@]4(F)[C@@H](O)C[C@]3(C)[C@]2(C(=O)CO)O1 | inactive |
| CCCCC(CC)COC(C)=O (stereo not drawn) | inactive |
| IC(I)I | inactive |

----------
assay: ATG_DR4_LXR_CIS: Attagene CIS-FACTORIAL HepG2 Assay for human Liver X Receptor (LXR), DR4 submotif (AID 2282929); settings: HepG2 Attagene DR4 cis-reporter, mRNA transcription; actives raise or lower the signal
Active and inactive are the calls of the source. Rule for the calls: active = hit-call score of the fitted dose curve at least 0.9, where 1 is the maximum; inactive = score below 0.9.

| COMPOUND | AC50 |
| --- | --- |
| C=C(C)C(=O)OCCOCCOCCOC(=O)C(=C)C | inactive |
| CCC1(C)NC(=O)NC1=O (centres undefined) | inactive |
| CCCOC(=O)c1c(Cl)c(Cl)c(Cl)c(Cl)c1C(=O)OCCC | 27 µM (active) |
| CC(C)CCOC(=O)c1ccccc1 | inactive |
| O=Cc1ccccc1S(=O)(=O)O | inactive |
| O=C1OC(=O)c2c(Br)c(Br)c(Br)c(Br)c21 | inactive |
| CN(C)CCOc1ccc(/C(=C(/CCCl)c2ccccc2)c2ccccc2)cc1 | 1.99 µM (active) |
| CC(=O)Nc1ccc(C(=O)CCl)cc1 | 12.9 µM (active) |
| CC(=O)O[C@H]1C[C@@H]2CC[C@@]1(C)C2(C)C | inactive |
| O=[N+]([O-])c1ccc(O)cc1C(F)(F)F | inactive |
| Nc1ccn([C@H]2CS[C@@H](CO)O2)c(=O)n1 | inactive |
| CCCCCCC(=O)c1ccccc1 | inactive |
| Brc1ccc(Br)c(Br)c1 | inactive |
| CCCCCc1ccco1 | 101 µM (active) |

----------
assay: ATG_XTT_Cytotoxicity: Cytotoxicity Assessment in the Attagene TRANS-FACTORIAL HepG2 Assay (AID 2283584)
Results filed as inconclusive are left out. Active and inactive are the calls of the source. The calls were made as follows: active = hit-call score of the fitted dose curve at least 0.9, where 1 is the maximum; inconclusive = response in the unintended direction; inactive = score below 0.9.

| COMPOUND | outcome |
| --- | --- |
| CC(C=O)Cc1ccc(C(C)(C)C)cc1 (stereo not drawn) | inactive |
| Nc1ccc(NCCO)c([N+](=O)[O-])c1 | inactive |
| CC(C)(C)C1=CC(=O)C(C(C)(C)C)=CC1=O | inactive |
| CCOC(=O)C(C#N)=C(c1ccccc1)c1ccccc1 | inactive |
| COCCc1ccc(OCC(O)CNC(C)C)cc1 (stereo not drawn) | inactive |
| OC[C@H]1O[C@@H]2O[C@H]3[C@H](O)[C@@H](O)[C@@H](O[C@H]4[C@H](O)[C@@H](O)[C@@H](O[C@H]5[C@H](O)[C@@H](O)[C@@H](O[C@H]6[C@H](O)[C@@H](O)[C@@H](O[C@H]7[C@H](O)[C@@H](O)[C@@H](O[C@H]8[C@H](O)[C@@H](O)[C@@H](O[C@H]9[C@H](O)[C@@H](O)[C@@H](O[C@H]1[C@H](O)[C@H]2O)O[C@@H]9CO)O[C@@H]8CO)O[C@@H]7CO)O[C@@H]6CO)O[C@@H]5CO)O[C@@H]4CO)O[C@@H]3CO | inactive |
| CC(C)OCCO | inactive |
| N#Cc1ccc(CC(=O)c2cccc(C(F)(F)F)c2)cc1 | inactive |
